This collection of values is drawn from ChEMBL document CHEMBL2218924.

# ASSAY_TARGET: Cyclin-dependent kinase 1/cyclin B1 (Homo sapiens) (UniProt P06493+P14635)
# Sequence (P06493 whole entry, looked up): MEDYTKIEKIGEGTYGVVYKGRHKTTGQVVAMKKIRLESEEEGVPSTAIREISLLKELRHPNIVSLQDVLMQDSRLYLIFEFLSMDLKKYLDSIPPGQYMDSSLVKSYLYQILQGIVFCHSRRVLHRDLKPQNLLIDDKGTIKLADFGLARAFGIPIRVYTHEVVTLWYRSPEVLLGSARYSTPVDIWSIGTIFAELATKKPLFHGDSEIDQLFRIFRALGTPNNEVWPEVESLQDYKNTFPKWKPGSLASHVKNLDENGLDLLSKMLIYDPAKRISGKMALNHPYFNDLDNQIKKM
# Sequence (P14635 whole entry, looked up): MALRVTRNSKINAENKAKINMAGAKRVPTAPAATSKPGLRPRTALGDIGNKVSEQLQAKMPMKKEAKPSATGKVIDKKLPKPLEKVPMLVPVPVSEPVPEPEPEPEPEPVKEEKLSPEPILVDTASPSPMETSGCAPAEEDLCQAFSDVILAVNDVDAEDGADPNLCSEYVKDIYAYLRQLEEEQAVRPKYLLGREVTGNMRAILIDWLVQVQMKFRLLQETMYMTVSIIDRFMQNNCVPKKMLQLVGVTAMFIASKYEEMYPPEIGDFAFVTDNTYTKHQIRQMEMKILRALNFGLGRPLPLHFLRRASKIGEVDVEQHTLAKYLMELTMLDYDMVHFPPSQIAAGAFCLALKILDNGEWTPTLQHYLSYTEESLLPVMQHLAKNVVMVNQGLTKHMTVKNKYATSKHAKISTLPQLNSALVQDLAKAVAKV
# ASSAY_SETUP: at 1 µM
MEASURE_NAME: residual activity (%)
Numbers only, in %.

Below, 4 compounds whose answers are already recorded.
Nc1nc(Nc2ccc(S(N)(=O)=O)cc2)nn1C(=S)Nc1c(F)cccc1F :: 0
CC(C)n1cnc2/c(=N/c3cccc(Cl)c3)nc(NCCO)[nH]c21 :: 58
O=Nc1c(-c2c(O)[nH]c3ccccc23)[nH]c2ccccc12 :: 35
O=C(Nc1cccc(Nc2nccc(Nc3cccc(C(F)(F)F)c3)n2)c1)C1CC1 :: 96

Give the measured residual activity of O=C1NC(=O)/C(=C/c2ccc3c(c2)OC(F)(F)O3)S1 .
101

----------
# ASSAY_TARGET: Serine/threonine-protein kinase 33 (Homo sapiens) (UniProt Q9BYT3)
# Sequence (Q9BYT3 whole entry, looked up): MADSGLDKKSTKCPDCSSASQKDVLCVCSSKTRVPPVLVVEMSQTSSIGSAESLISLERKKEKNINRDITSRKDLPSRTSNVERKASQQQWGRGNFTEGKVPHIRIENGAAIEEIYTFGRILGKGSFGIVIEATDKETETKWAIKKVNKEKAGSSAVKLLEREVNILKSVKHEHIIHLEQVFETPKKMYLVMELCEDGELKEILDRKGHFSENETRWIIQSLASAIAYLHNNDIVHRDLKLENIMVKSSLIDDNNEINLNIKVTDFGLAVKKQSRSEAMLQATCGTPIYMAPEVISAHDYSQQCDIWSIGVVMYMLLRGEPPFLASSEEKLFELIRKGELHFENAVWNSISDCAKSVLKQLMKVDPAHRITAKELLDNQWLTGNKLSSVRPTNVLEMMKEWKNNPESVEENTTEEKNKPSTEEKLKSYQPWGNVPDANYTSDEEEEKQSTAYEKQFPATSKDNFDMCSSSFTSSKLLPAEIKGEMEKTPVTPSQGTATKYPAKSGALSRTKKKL
# ASSAY_SETUP: at 10 µM
Would you kindly list residual activity for each of these compounds?
Numbers only, in %.

COc1cc2ncnc(Nc3ccc(O)c(Br)c3)c2cc1OC :: 45
COc1cc2ncnc(Nc3ccc(Oc4ccccc4)cc3)c2cc1OC :: 88

Below are 5 compounds. Give each one its residual activity.
1. COc1ccc(OC)c2c(=S)c3ccccc3[nH]c12
2. COc1ccc(CNc2nc(N(CCO)CCO)nc3c2ncn3C(C)C)cc1
3. O=C1c2ccccc2-[n+]2ccc3c([nH]c4ccccc43)c21
4. N#C/C(=C(\N)Sc1ccc(N)cc1)c1ccccc1C(F)(F)F
5. O=C(Nc1cccc(Nc2nccc(Nc3cccc(C(F)(F)F)c3)n2)c1)C1CC1

1. 77
2. 83
3. 86
4. 93
5. 89

Need residual activity for each of these compounds.
1. Cn1nc2c3c(cccc31)C(=O)c1ccccc1-2
2. c1ccc(-c2n[nH]cc2-c2ccnc3ccccc23)nc1
3. Nc1n[nH]c2nnc(-c3c(-c4ccccc4)nn4ccccc34)cc12
4. CCN(CC)C(=O)c1ccc(Nc2nc(OCC3CCCCC3)c3nc[nH]c3n2)cc1

1. 74
2. 94
3. 86
4. 18

----------
Give measured residual activity for each item. Keep answers brief.
# ASSAY_TARGET: Activin receptor type-1B (Homo sapiens)
# ASSAY_SETUP: at 10 µM
Numbers only, in %.

Please review the entries below; each comes with its answer.
O=c1cc(-c2cccc3c2Sc2ccccc2S3)oc(N2CCOCC2)c1 :: 97
N#CCCc1ccc2c(c1)-c1[nH]c3ccc([N+](=O)[O-])cc3c1CC(=O)N2 :: 23
COc1cccc(-c2cc(=O)c3ccccc3o2)c1N :: 108
CN(C)CCCn1cc(C2=C(c3c[nH]c4ccccc34)C(=O)NC2=O)c2ccccc21 :: 76
O=C1c2ccccc2-[n+]2ccc3c([nH]c4ccccc43)c21 :: 114
N#C/C(=C(\N)Sc1ccc(N)cc1)c1ccccc1C(F)(F)F :: 111

Field: next molecule
Would you kindly share the measured residual activity for Cn1cc(/C=C2\C(=O)Nc3ccc(S(N)(=O)=O)cc32)c2ccccc21 ?
104

----------
# ASSAY_TARGET: Receptor tyrosine-protein kinase erbB-4 (Homo sapiens) (UniProt Q15303)
# Sequence (Q15303 whole entry): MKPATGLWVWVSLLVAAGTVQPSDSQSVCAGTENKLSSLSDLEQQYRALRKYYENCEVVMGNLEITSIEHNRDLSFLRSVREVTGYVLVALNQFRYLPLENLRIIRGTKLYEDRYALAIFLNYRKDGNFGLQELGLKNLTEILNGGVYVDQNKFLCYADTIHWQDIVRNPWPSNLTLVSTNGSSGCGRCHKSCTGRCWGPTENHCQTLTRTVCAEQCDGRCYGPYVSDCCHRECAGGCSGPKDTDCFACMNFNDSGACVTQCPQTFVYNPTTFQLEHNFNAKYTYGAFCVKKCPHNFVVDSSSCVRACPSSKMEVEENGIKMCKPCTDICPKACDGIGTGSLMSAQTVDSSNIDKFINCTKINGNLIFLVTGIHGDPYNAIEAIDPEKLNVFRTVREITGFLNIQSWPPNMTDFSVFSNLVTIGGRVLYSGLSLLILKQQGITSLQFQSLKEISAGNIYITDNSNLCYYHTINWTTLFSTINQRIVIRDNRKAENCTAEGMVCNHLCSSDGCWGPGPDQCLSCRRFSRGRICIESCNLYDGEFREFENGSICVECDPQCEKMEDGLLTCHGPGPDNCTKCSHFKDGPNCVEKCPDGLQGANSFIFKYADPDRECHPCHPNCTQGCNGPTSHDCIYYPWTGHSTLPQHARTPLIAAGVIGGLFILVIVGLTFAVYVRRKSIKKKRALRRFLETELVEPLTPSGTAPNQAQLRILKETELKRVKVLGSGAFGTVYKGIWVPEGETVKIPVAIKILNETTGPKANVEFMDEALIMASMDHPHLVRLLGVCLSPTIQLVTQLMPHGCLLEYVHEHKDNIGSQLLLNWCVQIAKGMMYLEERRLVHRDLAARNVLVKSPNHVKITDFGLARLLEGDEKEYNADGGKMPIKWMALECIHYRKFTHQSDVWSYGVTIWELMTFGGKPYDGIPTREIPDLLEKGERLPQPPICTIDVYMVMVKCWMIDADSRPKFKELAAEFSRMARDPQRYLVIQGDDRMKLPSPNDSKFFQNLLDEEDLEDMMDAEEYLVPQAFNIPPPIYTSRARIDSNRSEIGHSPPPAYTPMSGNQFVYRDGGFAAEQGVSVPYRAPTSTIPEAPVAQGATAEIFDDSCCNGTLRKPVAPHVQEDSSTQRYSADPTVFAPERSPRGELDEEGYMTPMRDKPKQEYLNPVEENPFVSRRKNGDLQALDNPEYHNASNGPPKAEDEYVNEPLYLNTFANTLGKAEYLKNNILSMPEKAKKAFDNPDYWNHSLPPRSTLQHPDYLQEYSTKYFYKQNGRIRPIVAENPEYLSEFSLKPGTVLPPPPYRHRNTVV
# ASSAY_SETUP: at 1 µM
Returns true (1) if the recorded residual activity is greater than or equal to 90%, and false (0) otherwise.

Please review the entries below; each comes with its answer.
Cc1nc2cc3nc(-c4cccs4)cnc3cc2n1C :: true (1)
Cn1cnc2cc3c(Nc4cccc(Br)c4)ncnc3cc21 :: false (0)
NC(=O)c1ccc2[nH]c(-c3ccc(Oc4ccc(Cl)cc4)cc3)nc2c1 :: true (1)

# check: residual activity of Nc1cccc(-c2cc3c(Oc4cccc(O)c4)ncnc3[nH]2)c1 is greater than or equal to 90%
false (0)

Record O=c1cc(-c2cccc3c2Sc2ccccc2S3)oc(N2CCOCC2)c1 ; criterion: residual activity no lower than 90%. Met?
true (1)

Confirm if residual activity reported for the molecule O=C1c2ccccc2-[n+]2ccc3c([nH]c4ccccc43)c21 is 90% or above.
false (0)

Decide: is the reported value of residual activity for N#Cc1cnc2cnc(NCc3cccnc3)cc2c1Nc1ccc(F)c(Cl)c1 equal to or greater than 90%?
true (1)

Check if residual activity >= 90% (inclusive). Item: O=C(Nc1cccc(Nc2nccc(Nc3cccc(C(F)(F)F)c3)n2)c1)C1CC1
true (1)

State whether the measured residual activity reaches 90%, counting equality as reaching it, for COc1ccc(C(=O)Nc2sc3c(c2C(N)=O)CCCC3)cc1OC
false (0)

Could you please find out whether CC[n+]1c(/C=C/N(C)c2ccccc2)n(-c2ccccc2)c2ccc(-c3nc4ccccc4s3)cc21 has residual activity that meets 90% or exceeds it?
false (0)

Textbook exercise: given the entry CC#CC(=O)Nc1cc2c(Nc3ccc(F)c(Cl)c3)ncnc2cn1 , state whether its residual activity is greater than or equal to 90%.
false (0)

Exam item: decide whether the reported residual activity for COc1cc2ncnc(Nc3ccc(O)c(Br)c3)c2cc1OC is at least 90%.
false (0)

Is the recorded value of residual activity equal to or greater than 90% for this molecule? Cn1cc(/C=C2\C(=O)Nc3ccc(S(N)(=O)=O)cc32)c2ccccc21
true (1)

Decide: residual activity of CN(C)CCCn1cc(C2=C(c3c[nH]c4ccccc34)C(=O)NC2=O)c2ccccc21 >= 90%?
true (1)

Does CNc1cc2c(Nc3cccc(Br)c3)ncnc2cn1 have a reported residual activity of at least 90%?
false (0)

Check if residual activity >= 90% (inclusive). Item: COc1cc2ncnc(Nc3ccc(NC(=O)c4ccccc4)cc3)c2cc1OC
false (0)

Given Cc1cccc(-c2[nH]c(C(C)(C)C)nc2-c2ccc3c(c2)OCO3)n1 , state whether its residual activity is at least 90%.
true (1)

Can CC(C)n1cnc2c(NCc3ccccc3)nc(NCCCO)nc21 be said to have residual activity at or above 90%?
false (0)

----------
# ASSAY_TARGET: Serine/threonine-protein kinase BRSK1 (Homo sapiens)
# ASSAY_SETUP: at 10 µM
Provide the recorded residual activity for the entries that follow.
Give bare numbers, in %.

Oc1ccc(Nc2nc(-c3ccc(Cl)cc3)cs2)cc1 :: 90
CNc1cc2c(Nc3cccc(Br)c3)ncnc2cn1 :: 8
CO[C@H]1C[C@@H]2CC[C@@H](C)[C@@](O)(O2)C(=O)C(=O)N2CCCC[C@H]2C(=O)O[C@H]([C@H](C)C[C@@H]2CC[C@@H](O)[C@H](OC)C2)CC(=O)[C@H](C)/C=C(\C)[C@@H](O)[C@@H](OC)C(=O)[C@H](C)C[C@H](C)/C=C/C=C/C=C/1C :: 68

Need residual activity for each of these molecules.
1. COc1cc2ncnc(N3CCN(C(=O)Nc4ccc(Oc5ccccc5)cc4)CC3)c2cc1OC
2. c1ccc2c(-c3ccncc3)c[nH]c2c1
3. CO[C@H]1[C@@H](OC)C[C@H](C)[C@@H](OC)C2=CC(=O)C=C(NC(=O)/C(C)=C/C=C/[C@H](OC)[C@@H](OC(N)=O)/C(C)=C/[C@@H]1C)C2=O

91
59
75

----------
# ASSAY_TARGET: Homeodomain-interacting protein kinase 2 (Homo sapiens) (UniProt Q9H2X6)
# Sequence (Q9H2X6 whole entry, looked up): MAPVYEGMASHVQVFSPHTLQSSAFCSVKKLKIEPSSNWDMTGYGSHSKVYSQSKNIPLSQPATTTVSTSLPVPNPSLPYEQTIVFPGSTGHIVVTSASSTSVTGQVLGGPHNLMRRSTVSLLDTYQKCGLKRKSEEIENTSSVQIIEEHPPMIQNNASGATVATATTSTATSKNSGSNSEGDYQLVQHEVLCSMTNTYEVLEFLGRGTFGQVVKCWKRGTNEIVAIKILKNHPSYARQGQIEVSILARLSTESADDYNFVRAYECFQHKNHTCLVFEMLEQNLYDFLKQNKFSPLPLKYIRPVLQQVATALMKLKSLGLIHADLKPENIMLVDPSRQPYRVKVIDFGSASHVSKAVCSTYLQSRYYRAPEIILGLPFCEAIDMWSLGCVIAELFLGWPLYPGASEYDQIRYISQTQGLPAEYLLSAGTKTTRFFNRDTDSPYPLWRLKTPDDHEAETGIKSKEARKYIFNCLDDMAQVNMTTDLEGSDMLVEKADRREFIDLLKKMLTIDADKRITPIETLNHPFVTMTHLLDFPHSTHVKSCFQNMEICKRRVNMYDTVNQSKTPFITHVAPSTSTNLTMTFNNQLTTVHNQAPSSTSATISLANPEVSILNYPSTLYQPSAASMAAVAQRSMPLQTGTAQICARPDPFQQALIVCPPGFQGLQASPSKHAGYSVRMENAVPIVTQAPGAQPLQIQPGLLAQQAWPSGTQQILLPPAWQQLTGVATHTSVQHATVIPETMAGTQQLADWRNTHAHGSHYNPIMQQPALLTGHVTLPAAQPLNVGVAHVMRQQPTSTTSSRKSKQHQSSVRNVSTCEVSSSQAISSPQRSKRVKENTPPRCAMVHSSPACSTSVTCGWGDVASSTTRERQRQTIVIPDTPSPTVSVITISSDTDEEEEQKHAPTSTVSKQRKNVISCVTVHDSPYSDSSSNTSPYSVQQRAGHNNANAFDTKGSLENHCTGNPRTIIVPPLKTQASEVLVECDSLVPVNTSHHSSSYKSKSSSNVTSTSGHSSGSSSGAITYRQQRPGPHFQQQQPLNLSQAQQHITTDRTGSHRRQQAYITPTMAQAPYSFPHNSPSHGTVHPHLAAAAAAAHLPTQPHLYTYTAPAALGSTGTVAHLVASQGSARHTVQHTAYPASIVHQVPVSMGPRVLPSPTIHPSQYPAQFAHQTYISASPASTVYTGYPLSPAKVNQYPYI
# ASSAY_SETUP: at 1 µM
MEASURE_NAME: residual activity (%)
Give bare numbers, in %.

Below, each entry is followed by its recorded residual activity result.
CC[n+]1c(/C=C/N(C)c2ccccc2)n(-c2ccccc2)c2ccc(-c3nc4ccccc4s3)cc21 :: 95
Cc1ccc(NC2=CC(=O)c3sc(C)nc3C2=O)cc1 :: 97
O=C1Nc2cc(Br)ccc2/C1=C1/Nc2ccccc2/C1=N\O :: 28
Cn1nc2c3c(cccc31)C(=O)c1ccccc1-2 :: 79

I have this compound here, CN(C)CCCn1cc(C2=C(c3c[nH]c4ccccc34)C(=O)NC2=O)c2ccccc21 , and I need its recorded residual activity.
69

----------
# ASSAY_TARGET: Serine/threonine-protein kinase pim-3 (Homo sapiens) (UniProt Q86V86)
# ASSAY_SETUP: at 1 µM
MEASURE_NAME: residual activity (%)
Give bare numbers, in %.

O=C1Nc2ccccc2/C1=C1/Nc2ccccc2/C1=N\OCCC(O)CO (centres undefined) :: 75
Oc1n[nH]c2nnc(-c3c(-c4ccccc4)nn4ccccc34)cc12 :: 85
c1ccc(-c2n[nH]cc2-c2ccnc3ccccc23)nc1 :: 99

// each listed molecule needs a value for residual activity
1. O=C1Nc2cc(Br)ccc2/C1=C1/Nc2ccccc2/C1=N\O
2. N#Cc1cnc2cnc(NCc3cccnc3)cc2c1Nc1ccc(F)c(Cl)c1
3. Cn1cnc2cc3c(Nc4cccc(Br)c4)ncnc3cc21
4. CO[C@H]1C[C@@H]2CC[C@@H](C)[C@@](O)(O2)C(=O)C(=O)N2CCCC[C@H]2C(=O)O[C@H]([C@H](C)C[C@@H]2CC[C@@H](O)[C@H](OC)C2)CC(=O)[C@H](C)/C=C(\C)[C@@H](O)[C@@H](OC)C(=O)[C@H](C)C[C@H](C)/C=C/C=C/C=C/1C
5. C[C@@H](N)[C@H]1CC[C@H](C(=O)Nc2ccncc2)CC1
6. COc1cc2ncc(-c3ccccc3)nc2cc1OC

1: 78; 2: 97; 3: 92; 4: 97; 5: 98; 6: 95
